molecular target: Recombinant human HDAC3/SMRT heterodimer (Homo sapiens, UniProt O15379); construct: FLAG (C); made in house; assay: Human HDAC enzyme inhibitor Fluor-de-Lys assay, HDAC3/SMRT; type: biochemical; conditions: recombinant human HDAC3/SMRT, Fluor-de-Lys assay
Sequence (O15379 whole entry): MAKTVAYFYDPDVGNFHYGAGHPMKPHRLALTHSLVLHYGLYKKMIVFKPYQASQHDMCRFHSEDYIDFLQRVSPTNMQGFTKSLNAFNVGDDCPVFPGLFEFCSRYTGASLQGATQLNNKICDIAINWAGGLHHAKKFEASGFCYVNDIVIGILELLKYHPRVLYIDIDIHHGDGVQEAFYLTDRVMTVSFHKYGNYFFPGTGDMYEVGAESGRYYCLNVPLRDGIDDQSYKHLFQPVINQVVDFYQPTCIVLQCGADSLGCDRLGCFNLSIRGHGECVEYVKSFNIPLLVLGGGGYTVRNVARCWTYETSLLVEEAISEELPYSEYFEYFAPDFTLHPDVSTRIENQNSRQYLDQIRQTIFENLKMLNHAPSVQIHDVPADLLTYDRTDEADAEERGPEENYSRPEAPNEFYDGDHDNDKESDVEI
Sequence (Q9Y618 1-899 partner limits assumed): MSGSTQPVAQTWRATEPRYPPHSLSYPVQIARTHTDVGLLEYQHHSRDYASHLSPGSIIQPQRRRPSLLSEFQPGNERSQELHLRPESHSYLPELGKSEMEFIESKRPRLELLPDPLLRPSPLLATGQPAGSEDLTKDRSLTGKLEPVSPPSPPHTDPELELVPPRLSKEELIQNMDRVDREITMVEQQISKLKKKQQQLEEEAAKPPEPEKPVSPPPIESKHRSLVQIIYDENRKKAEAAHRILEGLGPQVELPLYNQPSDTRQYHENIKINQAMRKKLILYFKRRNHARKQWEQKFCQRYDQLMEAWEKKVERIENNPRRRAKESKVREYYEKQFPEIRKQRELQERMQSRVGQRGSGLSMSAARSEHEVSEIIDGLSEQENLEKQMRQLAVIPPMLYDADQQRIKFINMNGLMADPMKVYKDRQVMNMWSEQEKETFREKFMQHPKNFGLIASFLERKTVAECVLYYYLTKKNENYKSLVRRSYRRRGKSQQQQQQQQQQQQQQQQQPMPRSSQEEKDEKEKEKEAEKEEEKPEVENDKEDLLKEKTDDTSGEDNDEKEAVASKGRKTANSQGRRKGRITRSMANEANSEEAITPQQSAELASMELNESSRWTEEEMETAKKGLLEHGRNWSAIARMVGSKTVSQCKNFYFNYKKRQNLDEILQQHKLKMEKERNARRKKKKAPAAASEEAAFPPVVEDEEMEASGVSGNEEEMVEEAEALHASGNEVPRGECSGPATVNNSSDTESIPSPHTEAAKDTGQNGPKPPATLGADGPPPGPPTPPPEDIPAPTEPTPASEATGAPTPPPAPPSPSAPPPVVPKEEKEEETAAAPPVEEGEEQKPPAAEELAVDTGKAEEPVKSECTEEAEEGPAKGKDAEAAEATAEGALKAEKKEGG
pIC50: −log10 of the molar value.
Binary classification by pIC50, with 8 as an inclusive lower bound for 1; all other cases are -1.

The examples below pair each entry with its known result.
1. CCC(=O)CCCCC[C@H](NC(=O)C1=NOC2(CCN(CC3CC3)CC2)C1)c1ncc(-c2cc3ccc(=O)n(C)c3cc2OC)o1    1
2. CCC(=O)CCCCC[C@H](NC(=O)[C@H]1CC[C@@]2(CC1)OC(=O)c1cccnc12)c1nnc(-c2cc3ccccc3nc2OC)o1    -1
3. CCC(=O)CCCCC[C@H](NC(=O)[C@H]1CC12CCN(CC1CC1)CC2)c1ncc(-c2cc3ccc(C)nc3cc2F)[nH]1    1
4. CCC(=O)CCCCC[C@H](NCC1CN(C)C1)c1ncc(-c2cc3ccc(C)nc3cc2OC)o1    -1
5. CCC(=O)CCCCC[C@H](NC(=O)[C@H]1CC12CCN(C)CC2)c1ncc(-c2ccc3cnc(Cl)cc3c2)[nH]1    1
6. CCC(=O)CCCCC[C@H](NC(=O)[C@H]1CC12CCN(C)CC2)c1ncc(-c2ccccc2F)[nH]1    1
7. CCC(=O)CCCCC[C@H](NC(=O)[C@H]1CC12CCN(C)CC2)c1ncc(-c2cc3ocnc3cc2F)o1    -1
8. CCC(=O)CCCCC[C@H](NC(=O)CC1CC2(C1)CN(C(C)=O)C2)c1ncc(-c2ccccc2)[nH]1    -1
9. CCC(=O)CCCCC[C@H](NC(=O)C1CC12CCN(CC)CC2)c1nc(-c2ccc(F)cc2)[nH]c1-c1cnc(OC)nc1 (stereo partly shown)    -1
10. CCC(=O)CCCCC[C@H](NC(=O)C1CC12CCN(CC)CC2)c1nc(-c2ccc(F)cc2)[nH]c1-c1cccc(OC)c1 (stereo partly shown)    -1

-- ask Exam item: decide whether the reported pIC50 for CCC(=O)CCCCCC(NC(=O)C1CCC2(CC1)OC(=O)c1ncccc12)c1nnc(-c2cc3ccccc3nc2OC)o1 (stereo not shown) is at least 8.
-- reply -1

-- ask Exam item: decide whether the reported pIC50 for CCC(=O)CCCCC[C@H](NC(=O)C1=NOC2(CCN(C)CC2)C1)c1ncc(-c2ccc(-c3cccnc3)cc2OC)o1 is at least 8.
-- reply 1

From: patent US12590099B2
